# key: entry, value: pKi
Target: D(2) dopamine receptor (guinea pig)
Experiment: Binding affinity for dopamine D2 receptor using [3H]spiperone in guinea pig striatum
Would you please state pKi, meaning minus log10 of the concentration in mol/L, as a bare number?

Prompt line: Find the recorded pKi belonging to O=C1c2ccccc2CCC12CCN(Cc1ccc([N+](=O)[O-])cc1)CC2 and report it.
Response line: 5.71

---

Each entry below carries its reported pKi.
Biological target: D(2) dopamine receptor (guinea pig)
Assay: Binding affinity for dopamine D2 receptor using [3H]spiperone in guinea pig striatum
Schema: pKi number; meaning minus log10 of the concentration expressed in molar units.

Some compounds with known pKi results, for comparison:
O=C1c2ccccc2CCC1C1CCN(Cc2ccc(F)cc2)CC1 (stereo unspecified)
7.21
O=C1c2ccccc2CCC1C1CCN(CC2CC2)CC1 (stereo unspecified)
5.97
O=C1c2ccccc2CCC1C1CCN(Cc2ccccc2)CC1 (stereo unspecified)
6.00
O=C1c2ccccc2CCC1C1CCN(CCc2ccccc2)CC1 (stereo unspecified)
6.22

Prompt line: Please give the measured pKi for this compound: O=C1c2ccccc2CCC12CCN(CC1CCCCC1)CC2
Response line: 5.93

Prompt line: For the compound shown here, O=C1c2ccc(F)cc2CCC1C1CCN(Cc2ccccc2)CC1 (stereo unspecified) , give the reported pKi.
Response line: 7.21

Prompt line: For the compound O=C1c2ccc(F)cc2CCC1C1CCN(CCc2ccccc2)CC1 (stereo unspecified) , what pKi is on record?
Response line: 6.46

Prompt line: # input compound: CC(C)(C)c1ccc(CN2CCC(C3CCc4ccccc4C3=O)CC2)cc1 (stereo unspecified) ; wanted: its pKi
Response line: 6.39

---

Biological target: D(2) dopamine receptor (guinea pig)
Test: Binding affinity for dopamine D2 receptor using [3H]spiperone in guinea pig striatum
pKi: −log10 of the molar value.
readoutLabel: pKi

See these solved cases before continuing.
O=C1CCc2ccccc2C12CCN(CCc1ccccc1)CC2
< 5.00
O=C1c2ccccc2CCC12CCN(Cc1ccc3ccccc3c1)CC2
< 5.00

Prompt line: Consider the compound OC1CCc2ccccc2C12CCN(CCc1ccccc1)CC2 (stereo not drawn) and give its measured pKi.
Response line: < 5.00
